The listing below reports IC50 for compounds tested on UniProt P34972.
Sequence (P34972 whole entry): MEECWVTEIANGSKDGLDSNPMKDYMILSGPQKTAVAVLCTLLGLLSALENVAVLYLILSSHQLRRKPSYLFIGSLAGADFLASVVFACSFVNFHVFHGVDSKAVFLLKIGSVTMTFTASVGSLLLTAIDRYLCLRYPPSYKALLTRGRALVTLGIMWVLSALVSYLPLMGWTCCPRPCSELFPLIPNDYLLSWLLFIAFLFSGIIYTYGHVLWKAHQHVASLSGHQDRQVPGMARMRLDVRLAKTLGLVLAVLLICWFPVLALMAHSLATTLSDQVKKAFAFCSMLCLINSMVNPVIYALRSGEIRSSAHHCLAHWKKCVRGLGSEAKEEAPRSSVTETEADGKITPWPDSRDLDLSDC
# output: bare number, implied unit nM

Task item: Item `CCc1c(C(=O)NC23CC4CC(CC(C4)C2)C3)cc(C)n1-c1ccccc1` has what recorded IC50?
Reply: 398

Task item: Another: `Cc1cc(C(=O)NC23CC4CC(CC(C4)C2)C3)c(C)n1-c1ccccc1`
Reply: 109

Task item: Same question for `CCOC(=O)c1c(NC(=O)C23CC4CC(CC(C4)C2)C3)sc2c1CCCC2` please.
Reply: 475

###

Quick record of Ki values for UniProt P34972.
Return type: number; implicit unit nM.

Known Ki results, listed for orientation:
Cc1cc(C(=O)NC2CCCCC2)c(C)n1-c1ccccc1 :: 168
Cc1cc(C(=O)NC23CC4CC(CC(C4)C2)C3)c(C)n1-c1ccccc1 :: 7.59

Next item in the queue.
Task item: Quick check: Ki of `CCc1c(C(=O)Nc2cccc3ccccc23)cc(C)n1-c1ccccc1` ?
Reply: 20
